test system: slow reacting substance of anaphylaxis (SRS-A); experiment: SRS-A antagonism on isolated guinea pig ileum; parameters: species or system guinea pig ileum (SRS-A from rat); conditions: isolated guinea pig ileum strips, rat SRS-A, tyrode with atropine and mepyramine; 50% inhibition per method; read-out: SRS-A antagonism on Guinea Pig Ileum: Approximate concentration to give inhibition of a than maximal response to SRS-A
Kindly supply the reported IC50 values for the records listed here.
Param answer (str): number followed by unit.

IC50 for slow reacting substance of anaphylaxis (SRS-A) with input COc1ccc(OCCCOc2ccc3c(O)c([N+](=O)[O-])c(=O)oc3c2)cc1 equals 1 µM

IC50 for slow reacting substance of anaphylaxis (SRS-A) with input O=c1oc2cc(OCCCOc3ccc4c(c3)CCCC4)ccc2c(O)c1[N+](=O)[O-] equals 10 µM

IC50 for slow reacting substance of anaphylaxis (SRS-A) with input CC(=O)c1ccc(OCC(O)COc2ccc3c(O)c([N+](=O)[O-])c(=O)oc3c2)cc1O (centres unmarked) equals 10 µM

IC50 for slow reacting substance of anaphylaxis (SRS-A) with input CCCc1c(OCC(O)COc2ccc3c(O)c([N+](=O)[O-])c(=O)oc3c2)ccc(C(C)=O)c1O (centres unmarked) equals 0.01 µM

IC50 for slow reacting substance of anaphylaxis (SRS-A) with input O=c1oc2cc(OCCCOc3ccc(F)cc3)ccc2c(O)c1[N+](=O)[O-] equals 0.1 µM

IC50 for slow reacting substance of anaphylaxis (SRS-A) with input N#Cc1ccc(OCCCOc2ccc3c(O)c([N+](=O)[O-])c(=O)oc3c2)cc1 equals 10 µM

IC50 for slow reacting substance of anaphylaxis (SRS-A) with input O=c1oc2cc(OCCCCc3ccccc3)ccc2c(O)c1[N+](=O)[O-] equals 1 µM

IC50 for slow reacting substance of anaphylaxis (SRS-A) with input CCCc1c(OCCCOc2ccccc2)ccc2c(O)c([N+](=O)[O-])c(=O)oc12 equals 1 µM

IC50 for slow reacting substance of anaphylaxis (SRS-A) with input O=C(O)c1ccc(OCC(O)COc2ccc3c(O)c([N+](=O)[O-])c(=O)oc3c2)cc1 (centres unmarked) equals 10 µM

IC50 for slow reacting substance of anaphylaxis (SRS-A) with input CCCc1c(OCC(O)COc2ccc3c(O)c([N+](=O)[O-])c(=O)oc3c2CCC)ccc(C(C)=O)c1O (centres unmarked) equals 0.1 µM

IC50 for slow reacting substance of anaphylaxis (SRS-A) with input Cc1ccc(OCCCOc2ccc3c(O)c([N+](=O)[O-])c(=O)oc3c2)cc1 equals 1 µM

IC50 for slow reacting substance of anaphylaxis (SRS-A) with input CCc1cc2c(O)c([N+](=O)[O-])c(=O)oc2cc1OCCCOc1ccccc1 equals 10 µM

IC50 for slow reacting substance of anaphylaxis (SRS-A) with input O=c1oc2cc(OCCCOc3ccccc3)ccc2c(O)c1[N+](=O)[O-] equals 1 µM

IC50 for slow reacting substance of anaphylaxis (SRS-A) with input O=c1oc2cc(OCCOc3ccccc3)ccc2c(O)c1[N+](=O)[O-] equals 10 µM

IC50 for slow reacting substance of anaphylaxis (SRS-A) with input Cc1cc(OCCCOc2ccccc2)cc2oc(=O)c([N+](=O)[O-])c(O)c12 equals 1 µM

IC50 for slow reacting substance of anaphylaxis (SRS-A) with input O=c1oc2ccc(OCCc3ccccc3)cc2c(O)c1[N+](=O)[O-] equals 10 µM

IC50 for slow reacting substance of anaphylaxis (SRS-A) with input CCCc1c(OCCCOc2ccc3c(O)c([N+](=O)[O-])c(=O)oc3c2)ccc(C(C)=O)c1O equals 0.1 µM

// data source = patent US4136192A
